System: M18 aspartyl aminopeptidase (Plasmodium falciparum 3D7)
method: inhibition of P. falciparum M18 aminopeptidase – biochemical, QFRET, recombinant enzyme, primary screen (AID 1822);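 also: 0% = plate median of test compound wells and 100% = 2 mM ZnCl2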
conditions: recombinant PfM18AAP, H-Glu-NHMec fluorogenic cleavage; at 7.35 µM; active compounds read high
About 3,500 (1.2%) of roughly 290,000 compounds were called active. For the sample, actives were picked, then their nearest neighbours and some compounds at random.
Measured inhibition values are reported for all entries that follow.
Enter your answer as a number in %; do not include the unit.

Check out these entries, answers already filled in.
>  <molecule>
Cc1cc(C)cc(Oc2c(C(F)(F)F)oc3cc(OCC(=O)O)ccc3c2=O)c1

>  <inhibition [%]>
0.89

$$$$
>  <molecule>
CCCCN1C(=O)C(C)=C(C)C1OCCc1ccc(OC)c(OC)c1 (stereo not given)

>  <inhibition [%]>
-8.94

$$$$
>  <molecule>
CCOC(=O)N1CCN(C(=O)c2ccc3c(=O)n(CCc4ccc(OC)c(OC)c4)c(=O)[nH]c3c2)CC1

>  <inhibition [%]>
4.45

$$$$
>  <molecule>
CSc1n[nH]c(=S)n1N

>  <inhibition [%]>
32.7

$$$$
>  <molecule>
COc1ccc(N2CCN(c3ccc([N+](=O)[O-])cc3Cl)CC2)cc1

>  <inhibition [%]>
-8.52

$$$$

Recorded inhibition (molecule "CCOC(=O)c1c(-c2ccccc2)oc2cc(Br)c(O)cc12" ): -7.24

molecule "COc1ccc(CCNC(=O)CN2C(=O)COc3ccc(S(=O)(=O)N4CCCC4)cc32)cc1OC" , inhibition observed: 0.73

Per the record, "COc1ccc(C(=O)NC2CC2)cc1OC1CCN(C/C=C/c2ccccc2)CC1" has inhibition of -7.74

inhibition recorded for this molecule, "O=C(c1cnn(-c2ccc(Cl)cc2)c1)c1ccccc1O" , is -0.75

Just so you know, measured inhibition for CC(=O)c1ccc(N2CCN(C(=O)C3CCN(S(=O)(=O)c4ccc5c(c4)CC(C)N5C(=O)C4CC4)CC3)CC2)cc1 (stereo not given) came out at -0.32

###

System: M18 aspartyl aminopeptidase (Plasmodium falciparum 3D7)
method: inhibition of P. falciparum M18 aminopeptidase – biochemical, QFRET, recombinant enzyme, primary screen (AID 1822);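 also: 0% = plate median of test compound wells and 100% = 2 mM ZnCl2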
conditions: recombinant PfM18AAP, H-Glu-NHMec fluorogenic cleavage; at 7.35 µM; active compounds read high
About 3,500 (1.2%) of roughly 290,000 compounds were called active. Only a selection was taken, and actives are over-represented in it overall.
measurementName: inhibition (%)
Entry rule: numbers only, all in %.

>  <compound>
Cc1ccc(-c2noc(CC(c3ccccc3)c3ccccc3)n2)cc1

>  <measuredOn>
M18 aspartyl aminopeptidase (Plasmodium falciparum 3D7)

>  <inhibition / %>
34.4

$$$$
>  <compound>
Cc1ccc(C)c(NC(=O)CCC(=O)N/N=C2/CC(=O)CC(C)(C)C2)c1

>  <measuredOn>
M18 aspartyl aminopeptidase (Plasmodium falciparum 3D7)

>  <inhibition / %>
-1.68

$$$$
>  <compound>
CC1C/C(=N/NC(=O)c2cccs2)CC(C)(C)C1 (stereo not given)

>  <measuredOn>
M18 aspartyl aminopeptidase (Plasmodium falciparum 3D7)

>  <inhibition / %>
-19.4

$$$$

I looked up "Cc1cc(C)c(S(=O)(=O)Nc2c(C)n(C)n(-c3ccccc3)c2=O)cc1[N+](=O)[O-]" and its inhibition for M18 aspartyl aminopeptidase (Plasmodium falciparum 3D7) was 1.79

The recorded inhibition with M18 aspartyl aminopeptidase (Plasmodium falciparum 3D7) for CC(C)(C)c1ccc(C(CC(=O)O)NS(=O)(=O)Cc2ccccc2)cc1 (stereo not given) was -3.96

###

Test system: M18 aspartyl aminopeptidase (Plasmodium falciparum 3D7)
method: inhibition of P. falciparum M18 aminopeptidase – biochemical, QFRET, recombinant enzyme, primary screen (AID 1822);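 also: 0% = plate median of test compound wells and 100% = 2 mM ZnCl2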
conditions: recombinant PfM18AAP, H-Glu-NHMec fluorogenic cleavage; at 7.35 µM; active compounds read high
Screen size: about 290,000 compounds; about 3,500 (1.2%) were called active. The sample as a whole holds a higher share of actives than the screen did.
The entries below are paired with their reported inhibition.
Report only the number, with the unit % understood.

In plain terms, "CC(C)(C)c1ccc(CN2C(=O)c3ccccc3S2(=O)=O)cc1" has a documented inhibition of 7.13

The molecule "O=C(Nc1sc2c(c1C(=O)O)CCC2)c1ccccc1F" showed inhibition equal to -1.52

The molecule listed as "O=C(CO/N=C/c1ccccc1OC(F)F)NC1CCCC1" shows inhibition equal to 3.38

###

Tested on: M18 aspartyl aminopeptidase (Plasmodium falciparum 3D7)
method: inhibition of P. falciparum M18 aminopeptidase – biochemical, QFRET, recombinant enzyme, primary screen (AID 1822);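 also: 0% = plate median of test compound wells and 100% = 2 mM ZnCl2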
conditions: recombinant PfM18AAP, H-Glu-NHMec fluorogenic cleavage; at 7.35 µM; active compounds read high
The whole screen tested about 290,000 compounds, of which about 3,500 (1.2%) were called active. The list comes from a sample in which actives are over-represented; it also holds close analogues and randomly drawn compounds.
Reported inhibition values for the following molecules.
A number alone suffices; assume %.

>  <molecule>
Cc1ccc2nc(-c3cccc(Br)c3)cc(C(=O)Nn3cnnc3)c2c1

>  <unitString>
%

>  <inhibition>
60.7

$$$$

Measured inhibition, "O=c1nc(N/N=C/c2ccco2)cn[nH]1" : 52.8

# inhibition (molecule: CCCOc1ccc(C2NC(=O)NC(c3ccccc3)=C2C(C)=O)cc1OCC (stereo unspecified) ) is -0.97

So, "CC(C)NC(=O)C(=O)N/N=C/c1ccco1" ? Its inhibition was -9.66

Entry "CC1CCN(C(=O)C2CCN(S(=O)(=O)N3CCC4(CC3)OCCO4)CC2)CC1" — recorded inhibition = -6.53

###

Tested on: M18 aspartyl aminopeptidase (Plasmodium falciparum 3D7)
method: inhibition of P. falciparum M18 aminopeptidase – biochemical, QFRET, recombinant enzyme, primary screen (AID 1822);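 also: 0% = plate median of test compound wells and 100% = 2 mM ZnCl2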
conditions: recombinant PfM18AAP, H-Glu-NHMec fluorogenic cleavage; at 7.35 µM; active compounds read high
Among all 290,000 compounds or so, about 3,500 (1.2%) were called active. The sample as a whole holds a higher share of actives than the screen did.
Measured inhibition of individual entries
Please respond with the number in % and leave the unit unwritten.

# annotated cases, reported inhibition shown
>  <molecule>
CC(=O)Oc1ccc(N(C(C)=O)S(=O)(=O)c2ccc3ccccc3c2)cc1Br

>  <inhibition [%]>
-1.42

$$$$
>  <molecule>
CC(C)N1CCC(N2CCN(Cc3cccnc3)CC2CCO)CC1 (stereo not given)

>  <inhibition [%]>
4.35

$$$$
>  <molecule>
Cc1c(Cl)cccc1NC(=O)[C@@]1(CC(=O)O)CC(/C=C/c2ccccc2)=NO1

>  <inhibition [%]>
-3.65

$$$$
>  <molecule>
O=C(C[n+]1ccc2c(c1)nnn2-c1ccccc1)c1ccc(Cl)cc1

>  <inhibition [%]>
0

$$$$

# lookup: "COC(=O)c1c(C)oc2ccc(N(C(=O)Oc3ccccc3)S(=O)(=O)c3ccccc3)cc12" on M18 aspartyl aminopeptidase (Plasmodium falciparum 3D7), inhibition = -12.4

###

Tested on: M18 aspartyl aminopeptidase (Plasmodium falciparum 3D7)
method: inhibition of P. falciparum M18 aminopeptidase – biochemical, QFRET, recombinant enzyme, primary screen (AID 1822);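 also: 0% = plate median of test compound wells and 100% = 2 mM ZnCl2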
conditions: recombinant PfM18AAP, H-Glu-NHMec fluorogenic cleavage; at 7.35 µM
About 3,500 (1.2%) of roughly 290,000 compounds were called active.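 Rule for the calls: active = inhibition above the campaign mean inhibition over all tested compounds plus 3 SD (cut at about 28% in these data); inactive = the rest.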 The full list was thinned out, with actives kept by preference.
The reply should name one outcome from TRUE (active), FALSE (inactive)

Previously resolved entries follow.
>  <compound>
CC1CCN(S(=O)(=O)c2ccc3c(ccn3CC(=O)O)c2)CC1

>  <measuredOn>
M18 aspartyl aminopeptidase (Plasmodium falciparum 3D7)

>  <assignedCategory>
FALSE

$$$$
>  <compound>
CCCCN(CCCC)CCNC(=O)CN1C(=O)COc2ccc(S(=O)(=O)N3CCOCC3)cc21

>  <measuredOn>
M18 aspartyl aminopeptidase (Plasmodium falciparum 3D7)

>  <assignedCategory>
FALSE

$$$$
>  <compound>
CC1CCC2(CC1)NC(=O)N(Cc1nnc(-c3cccs3)o1)C2=O (centres undefined)

>  <measuredOn>
M18 aspartyl aminopeptidase (Plasmodium falciparum 3D7)

>  <assignedCategory>
FALSE

$$$$
>  <compound>
CC(C)c1nc2sc3c(c2c(=O)n1N)CC(C)(C)OC3

>  <measuredOn>
M18 aspartyl aminopeptidase (Plasmodium falciparum 3D7)

>  <assignedCategory>
FALSE

$$$$
>  <compound>
O=C(Nc1ccccc1)/C(=C\c1ccco1)NC(=O)c1ccco1

>  <measuredOn>
M18 aspartyl aminopeptidase (Plasmodium falciparum 3D7)

>  <assignedCategory>
FALSE

$$$$

Kindly provide the recorded test outcome for the following compound: "COc1cccc(C(=O)Nc2nnc(S(=O)(=O)N(C)c3ccccc3)s2)c1"
FALSE

# fetch the recorded call for "O=C(CSC(=S)N1CCOCC1)c1ccccc1" here
FALSE

Give the logged outcome of this assay for the following compound: "COc1ccc(Nc2cc(Sc3ccc(OC)cc3)ncn2)cc1"
FALSE
